Numbers sourced from PubChem BioAssay (NCI).

Each entry below carries its recorded growth.
- System: U251 CNS
- measurement-protocol: NCI-60 one-dose screen, 48 h (100 = growth as untreated, 0 = no growth, -100 = all killed)
- test-parameters: 10 µM
The panel holds about 83,000 compounds, 20% with a hit somewhere; the sample as a whole holds those more often.
measured-parameter: growth (%)

{"compound-structure-string": "C=CCn1c(SCC(=O)Nc2ccc(C(=O)/C=C/c3cc(OC)c(OC)c(OC)c3)cc2)nnc1-c1cc(-c2ccc(Cl)cc2)nc2ccccc12", "assay-value": 86.3}
{"compound-structure-string": "COc1cc(C(=O)/C=C/c2c[nH]c3ccccc23)cc(OC)c1OC", "assay-value": 14.7}
{"compound-structure-string": "O=C(CSc1nnc(-c2ccc(Cl)cc2)o1)Nc1ccc(C(=O)/C=C/c2ccc(Cl)cc2)cc1", "assay-value": 104}
{"compound-structure-string": "O=S(=O)(NCCCNc1nccc(-c2cn(-c3ccccc3)nc2-c2ccc(Cl)c(O)c2)n1)c1ccccc1", "assay-value": 59.4}
